- SYSTEM_NAME: pooled human IgG (human IgG1,2,3 and 4)
ATTRIBUTE_MEASURED: Enzyme Activity Endpoint Assay (purified): Fc (ng/µL)
Write the answer as a number in ng/µL, unit excluded.

Ask: I am curious: what Enzyme Activity Endpoint Assay (purified): Fc value has been reported for PRT-312 (protein) MQITSVWTKGVTPLTPEQFRENNEDVIHAPYLAHQGWYDITKAFDGKDNLLCGAATAGNMLHWWFDQNKTEIEAYLSKHPEKQKIIFGNQELFDLKAAIDTKDSQTNSQLFNYFRDKAFPNLSARQLGVMPDLVLDMFINGYYLNVGKTQSTDVNRPYQDKDKRGGIFDAVFTRGDQTTLLTARHDLKNKGLNDISTIIKQELTEGRALALSHTYANVSISHVINLWGADFNAEGNLEAIYVTDSDANPSIGMKKYFVGRNAHGHVAISAKKIEGENIGAQVLGLFTLSSGKDIWQKLS ?
Result: 330
